The entries below are paired with their reported inhibition.
assay: loss of swimming-algae plug formation – whole organism, Chlamydomonas reinhardtii, WT vs cilia-less mutant, absorbance, 96-well, primary screen (AID 463189); conditions: Chlamydomonas reinhardtii gravitaxis, OD600 absorbance, 2 days; at 10 µM; stronger effect = higher value;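 further: 0% = wild type cc124 cells in DMSO and 100% = ciliumless bld1 mutant cells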
Activity calls are given as the source filed them.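 How the source made its calls: active means inhibition at or above 50% relative to wild type and mutant plate controls; inactive means inhibition below 50%.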
Parameter: inhibition

• COc1ccc(-n2nc(C(F)(F)F)cc2-c2ccc(Cl)cc2)cc1 = -10.1% (inactive)
• Cc1nc(-c2ccc(-c3ccc(C(=O)N4CCc5cc6c(cc54)C4(CCN(C)CC4)CO6)cc3)c(C)c2)no1 = 141% (active)
• Cc1c(N=Cc2c(O)n(CCc3ccccc3)c(=O)[nH]c2=O)c(=O)n(-c2ccccc2)n1C = 41.8% (inactive)
• CC(N)[C@H](O)c1ccc(O)c(O)c1 (some centres not stated) = 1.5% (inactive)
• CC(C)(C)NCC(O)c1ccccc1Cl (configuration not stated) = 8.05% (inactive)
• Cn1c(O)c(C=NCCCNC2CCCCC2)c(=O)n(C)c1=O = -2.14% (inactive)
• CN1CCc2cccc(Cl)c2CC1 = 9.04% (inactive)
• COC(=O)c1cc2c(cn1)[nH]c1ccccc12 = 2.96% (inactive)
• O=c1[nH]c(=O)n(Cc2ccco2)c(O)c1C=NCCCn1ccnc1 = 14.1% (inactive)
• CCCN(CCC)CCc1c[nH]c2ccc(C(N)=O)cc12 = -0.498% (inactive)
• CC1Cc2cc3c(cc2C(c2ccc(N)cc2)=NN1)OCO3 (configuration not stated) = 0.595% (inactive)
• O=c1[nH]c(=O)n(Cc2ccco2)c(O)c1C=NCCN1CCOCC1 = -10.1% (inactive)
• O=C(O)C1C2CCC(O2)C1C(=O)O (configuration not stated) = -11.7% (inactive)
• COC(=O)C(O)(c1ccc(NC(=O)c2ccco2)c(OC)c1)C(F)(F)F (configuration not stated) = 0.634% (inactive)
• CCN(CC)C(=O)N[C@H]1C=C2c3cccc4[nH]cc(c34)C[C@H]2N(C)C1 = 8.76% (inactive)
• Clc1cnc(Oc2ccc(Oc3ncc(Cl)cc3Cl)cc2)c(Cl)c1 = 2.67% (inactive)
• CN(N=O)c1ccc(O)c(O)c1 = 1.04% (inactive)

====

The entries below are paired with their reported z-score.
test: Primary imaging screen for DUSP6 inhibitors that restore phospho-Erk in transfected HeLa cells, chemical complementation (AID 609); conditions: HeLa MKP-3 transfected, phospho-Erk imaging KS statistic; measured here: nuclear pErk red intensity z-score; at 10 µM; stronger effect = higher value
Parameter: z-score

• C[C@H]1OC[C@@H](C[N+](C)(C)C)O1 = -0.857
• O=C1c2ccccc2C(=O)N1Cc1nc2ccccc2c(=O)n1-c1cccnc1 = 1.85
• COc1ccc(-n2c(SC)nc3ccccc3c2=O)cc1 = -0.0859
• O=c1[nH]c2ccccc2c(=O)n1-c1cccc(Cl)c1 = 0.728
• C[N+]1(C)CCc2cc3c(cc2[C@H]1[C@@H]1OC(=O)c2c1ccc1c2OCO1)OCO3 = -0.447
• C[N+]1(C)[C@@H]2CC(OC(=O)[C@H](CO)c3ccccc3)C[C@H]1[C@@H]1O[C@@H]12 (some centres not stated) = -0.0821
• COC1=CC(=O)OC(/C=C/c2ccccc2)C1 (configuration not stated) = -1.36
• CCN(CC)c1ccc(N=Cc2c(O)n(-c3cc(OC)ccc3OC)c(=O)[nH]c2=O)cc1 = 0.193
• CCCCCCn1c(O)c(C=NCCN2CCCCC2)c(=O)[nH]c1=O = -1.39
• COc1ccc(Cc2nccc3cc(OC)c(OC)cc23)cc1OC = -0.255
• CC(=O)OC1(Cc2ccccc2)CN2CCC1c1ccccc12 (configuration not stated) = 0.994
• CCOc1ccc(Cc2c(O)[nH]c(=O)[nH]c2=O)cc1 = 1.61
• COc1ccc2c(c1OC)C(=O)OC2c1c(O)n(C2CCCCC2)c(=O)[nH]c1=O (configuration not stated) = 0.433
• CN1CCc2nc(SCC(=O)OC(C)(C)C)c(C#N)cc2C1 = 0.501
• CNC(=O)N(C)c1nnc(C(C)(C)C)s1 = -1.4
• CC[C@@H](CO)NC(=O)[C@@H]1C=C2c3cccc4c3c(cn4C)C[C@H]2N(C)C1 = -1.05
• CCCCCCn1c(O)c(C=NC2CCN(Cc3ccccc3)CC2)c(=O)[nH]c1=O = 0.697
• O=c1[nH]c(=O)n(-c2cccc(Cl)c2)c(O)c1C=NCCN1CCCCC1 = 1.7
• COc1ccc(OC)c(C(O)C(C)N)c1 (configuration not stated) = 1.18
• NCC(CC(=O)O)c1ccc(Cl)cc1 (configuration not stated) = 0.491
• COc1ccc(Cn2c(O)c(C=NCCCn3ccnc3)c(=O)[nH]c2=O)cc1 = 0.929
• Cc1ccc(-n2c(O)c(C=NCCN3CCOCC3)c(=O)[nH]c2=O)cc1 = 1.01
• CC(=O)OC1(c2ccc(C)cc2)CN2CCC1c1ccccc12 (configuration not stated) = 0.108
• CNCCc1nc(N)n[nH]1 = -0.807
• Cc1ccc(C)c(C2(O)CC(C)N(C)CC2C)c1 (configuration not stated) = -0.947
• C[N+]1(C)CCN(c2ccccc2)CC1 = -0.542
• COC(=O)C(c1ccccc1)N1CCCCCC1 (configuration not stated) = 1.38
• CCN(CC)CCCNC(=O)c1c(O)c2ccccc2n(Cc2ccccc2)c1=O = -1.44
• C=CCOC(=O)C1=C(C)OC(N)=C(C#N)C12C(=O)N(CN1CCOCC1)c1ccccc12 (configuration not stated) = 1.06
• CCCC12CN3CN(C1)CC(CCC)(C3)C2O (configuration not stated) = -1.5
• CN1CCc2c(c(N3CCCCC3)nc3n[nH]c(N)c23)C1 = 0.455
• CC(C)Cc1[nH]c(=O)c(C#N)c2c1CCC2 = -0.369
• CN1[C@@H]2CC[C@H]1CC(OC(=O)C1C=Nc3ccccc31)C2 (some centres not stated) = 0.0205
• CCOC(=O)[C@]1(C#N)[C@@H]2C=CC(C(C)=O)=CN2[C@@H](C(N)=O)[C@@H]1c1ccsc1 = -0.321
• OCCOCC#CCN1CCOCC1 = 0.188
• CC1=NOC2(C)Nc3ncnn3C(c3ccccc3)C12 (configuration not stated) = 1.46
• CC(C)N(CCC(C(N)=O)(c1ccccc1)c1ccccn1)C(C)C (configuration not stated) = 0.768

====

test: Primary imaging screen for DUSP6 inhibitors that restore phospho-Erk in transfected HeLa cells, chemical complementation (AID 609); conditions: HeLa MKP-3 transfected, phospho-Erk imaging KS statistic; measured here: cell density z-score; at 10 µM
Parameter: z-score

- CCCc1nc2ccccc2c(=O)n1-c1ccccc1OC: -0.589
- CCCCOCCCn1c(N)c(C(=O)OCCOC)c2nc3ccccc3nc21: -0.11
- CC(=O)OC1(Cc2ccccc2)CN2CCC1c1ccccc12 (stereo not given): 0.311
- CCCCCCn1c(O)c(C=NCCCn2ccnc2)c(=O)[nH]c1=O: 1.42
- CCC(=NCCOc1ccc(Cl)cc1)c1c(O)n(C)c(=O)n(C)c1=O: 0.38
- COc1ccc(C(=O)N2CCCC2=O)cc1: 0.0379
- O=c1[nH]c(=O)n(-c2cccc(Cl)c2)c(O)c1C=NCCN1CCCCC1: -0.817
- CCCCCCn1c(O)c(C(C)=NC)c(=O)[nH]c1=O: 0.993
- CCOc1ccc(-n2c(O)c(C=NCCN3CCNCC3)c(=O)[nH]c2=O)cc1: -0.956
- O=c1[nH]c(=O)n(-c2cccc3ccccc23)c(O)c1C=NCCCn1ccnc1: 0.0574
- Cc1ccc2c(c1)[C@@H]1CN(C)CC[C@@H]1N2C(=O)Nc1cccc(C(F)(F)F)c1: 1.48
- Nc1ncc(P(=S)(N2CCOCC2)N2CCOCC2)s1: -0.00628
- Cc1ccc(-n2c(O)c(C=NCCN3CCOCC3)c(=O)[nH]c2=O)cc1: -0.809
- CCOC(C(=O)OCC(O)CN(CC)CC)(c1ccccc1)c1ccccc1 (stereo not given): -0.241
- C=CCn1c(O)c(C=NCCN(C)C)c(=O)[nH]c1=O: 0.486

====

assay: Primary imaging screen for DUSP6 inhibitors that restore phospho-Erk in transfected HeLa cells, chemical complementation (AID 609); settings: HeLa MKP-3 transfected, phospho-Erk imaging KS statistic; measured here: nuclear pErk red intensity z-score; at 10 µM; stronger effect = higher value
Given measured z-score, output TRUE if it is greater than or equal to 0.07 and FALSE if not.

- O=C1C2CCN(CC2)[C@@H]1Cc1ccc2ccccc2c1O: FALSE
- [N-]=[N+]=CC(=O)OC[C@H](N)C(=O)O: FALSE
- CC1(C)CC(=O)C(C=NCCN2CCN(C(=O)Cc3ccc(F)cc3)CC2)=C(O)C1: FALSE
- CC(C)[C@@]1(NC(=O)[C@@H]2C[C@@H]3c4cccc5[nH]cc(c45)C[C@H]3N(C)C2)O[C@@]2(O)[C@@H]3CCCN3C(=O)[C@H](Cc3ccccc3)N2C1=O: TRUE
- COc1ccc(C(=O)N2CCCC2=O)cc1: TRUE
- O=C(COc1ccc2ccccc2c1)N1CCN(C2CCN(Cc3ccccc3)CC2)CC1: TRUE
- COc1ccc(C(=O)CN2CCOCC2)cc1F: FALSE
- Cc1c(N=Cc2c(O)n(Cc3ccco3)c(=O)[nH]c2=O)c(=O)n(-c2ccccc2)n1C: FALSE
- Cn1c(O)c(C(=O)c2ccccc2Cl)c(=O)n(C)c1=O: TRUE
- CC(C)OC(=O)c1c(N)n(Cc2ccco2)c2nc3ccccc3nc12: FALSE
- CCOc1ccc(-n2c(O)c(C=NCCN3CCNCC3)c(=O)[nH]c2=O)cc1: TRUE
- CCCc1nc2ccccc2c(=O)n1-c1ccccc1OC: FALSE
- CCOC(=O)c1cc2c(cn1)[nH]c1ccccc12: FALSE
- CCCCSP1(=S)NCCCN1: TRUE
- CC1(C)NCCN2C(=O)CSC21 (centres undefined): TRUE
- CCN(CC)CCN=Cc1c(O)n(CCc2ccccc2)c(=O)[nH]c1=O: FALSE
- C=C1CC[C@@]2(O)[C@H]3Cc4ccc(O)c5c4[C@@]2(CCN3CC2CC2)[C@H]1O5: FALSE
- CC(C)(C)OC(=O)c1c(N)n(Cc2ccco2)c2nc3ccccc3nc12: FALSE
- CC1(c2ccccc2)NCCN2C(=O)CSC21 (centres undefined): FALSE

The measured values listed here are drawn from PubChem BioAssay.
